Tested on: JEG-3
Test: Primary qHTS to identify gynecologic anti-cancer compounds using libraries of approved drugs and bioactive compounds (AID 1345084); note: % is set by controls: 0 for no effect and ±100 for the full control effect; nearly all actives have a fitted effect of over 55% in size
Settings: Gynecologic cancer cell panel viability, ATPlite luminescence, 48 h; series mostly up to 57.5 µM
Records with an inconclusive call do not appear. The source made the active and inactive calls. Calls come from the whole dose curve; as a rule, active = well fitted cell-killing curve with a large enough effect; inconclusive = small, poorly fitted or top-dose-only effect, or effect the other way; inactive = flat fitted curve, though single readings scatter.
Parameter: activity change, negative = cytotoxicity

A selection of reference data follows.
1) CC(C)(O)/C=C/CC(C)(O)C1C(O)CC2(C)C3CCC4C(C)(C)C(=O)CCC4(C)C3CCC12C (stereo unspecified) | inactive
2) COC(=O)C1=CO[C@@H](O[C@@H]2O[C@H](CO[C@@H]3O[C@H](COC(=O)/C=C/c4cc(OC)c(O)c(OC)c4)[C@@H](O)[C@H](O)[C@H]3O)[C@@H](O)[C@H](O)[C@H]2O)[C@@H]2C(CO)=CC[C@H]12 | inactive
3) O=C1N=C(N2CCOCC2)CN1c1ccc(Cl)cc1 | inactive
4) COc1cc(NC(=O)Nc2cccc(CNC(=O)O[C@H]3CCOC3)c2)ccc1-c1cnco1 | inactive

Give the reported activity change, negative = cytotoxicity for this compound. CC(=O)OC/C=C(\C)C(CC1C(C)=C(OC(C)=O)C(=O)C2C(C)(C)C(O)CCC12C)OC(C)=O (stereo unspecified)
inactive

Identify the reported activity change, negative = cytotoxicity for the following entry. CC(=O)N[C@H]1[C@H](O[C@H]2CC[C@@]3(C)C(CC[C@]4(C)C3CC=C3C5CC(C)(C)CC[C@]5(C(=O)O)[C@H](O)C[C@]34C)C2(C)C)O[C@H](CO[C@@H]2OC[C@H](O)[C@H](O)[C@H]2O[C@@H]2OC[C@@H](O)[C@H](O)[C@H]2O)[C@@H](O)[C@@H]1O (stereo partly specified)
4.23% [at 11.6 µM] (inactive)
